Entry source: paper PMC9967275

# assay_target: cruzain (Trypanosoma cruzi, UniProt P25779);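 further: at 5 µM compound concentration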
# Sequence (P25779 123-337 limits assumed): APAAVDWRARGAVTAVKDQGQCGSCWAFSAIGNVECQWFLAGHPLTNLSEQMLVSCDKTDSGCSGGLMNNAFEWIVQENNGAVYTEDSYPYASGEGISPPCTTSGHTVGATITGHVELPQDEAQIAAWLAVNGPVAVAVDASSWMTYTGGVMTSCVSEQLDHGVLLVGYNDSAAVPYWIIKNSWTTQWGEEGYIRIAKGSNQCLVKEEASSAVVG
# test_details: biochemical
# measurement_setup: 0’ (pre-incubation time); sheet "Screening results"
endpoint_name: Cruzain 0’ Inhibition (%)
Express your answer in %, writing the number without its unit.

As a guide, the following entries are already answered.
INSERT INTO assay_data (compound, assay_target, result) VALUES
  ('Cc1[nH]c2cc(F)cc(F)c2c(=O)c1-c1ccc(Oc2ccc(OC(F)(F)F)cc2)cc1', 'cruzain (Trypanosoma cruzi, UniProt P25779)', 8),
  ('COc1cc(CN2CCC3(C=Cc4ccccc43)CC2)cc2c1OCO2', 'cruzain (Trypanosoma cruzi, UniProt P25779)', 1.7),
  ('Clc1cccc(C(c2ccc(CN3CCNCC3)cc2)n2ccnc2)c1 (centres unmarked)', 'cruzain (Trypanosoma cruzi, UniProt P25779)', -0.3),
  ('CCCS(=O)(=O)N1CCC(CO)(Cc2ccccc2C(F)(F)F)CC1', 'cruzain (Trypanosoma cruzi, UniProt P25779)', 0.9);

Read the next record carefully.
Qu. Suppose we examine the compound CC(C)(C)OC(=O)N1CCC(Cn2nc(-c3cnc4ccccc4c3)c3c(N)ncnc32)CC1 ; what Cruzain 0’ Inhibition value has been reported?
Ans. -14

----------
# assay_target: TbrCatL (Trypanosoma brucei rhodesiense, UniProt Q95PM0)
# Construct: Conor Caffrey (University of California San Diego)
# Sequence (Q95PM0 entry or part of it): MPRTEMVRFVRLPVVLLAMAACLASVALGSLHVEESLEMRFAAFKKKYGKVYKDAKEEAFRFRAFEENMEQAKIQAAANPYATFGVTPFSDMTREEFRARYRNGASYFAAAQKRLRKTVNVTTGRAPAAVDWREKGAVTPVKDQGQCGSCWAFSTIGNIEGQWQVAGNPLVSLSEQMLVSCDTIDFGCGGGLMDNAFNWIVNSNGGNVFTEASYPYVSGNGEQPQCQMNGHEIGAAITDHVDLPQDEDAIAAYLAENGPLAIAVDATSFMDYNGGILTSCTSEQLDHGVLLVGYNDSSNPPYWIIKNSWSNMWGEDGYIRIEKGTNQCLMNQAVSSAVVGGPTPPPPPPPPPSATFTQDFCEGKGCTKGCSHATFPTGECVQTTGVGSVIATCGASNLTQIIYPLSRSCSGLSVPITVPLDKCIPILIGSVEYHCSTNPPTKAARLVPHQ
# test_details: TbrCatL enzymatic inhibition assay (cleavage of fluorogenic substrate Z-FR-AMC);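 further: at 5 µM compound concentration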
# Format: biochemical
# measurement_setup: 10’ (pre-incubation time); sheet "Screening results"
TbrCatL 10’ Inhibition reference
Express your answer in %, writing the number without its unit.

As a guide, the following entries are already answered.
INSERT INTO results (molecule, assay_target, unit_of_measure, result) VALUES
  ('O=C(Nc1ccc(N2CCNCC2)cc1)c1ccn2ncc(-c3cccc(Cl)c3)c2n1', 'TbrCatL (Trypanosoma brucei rhodesiense, UniProt Q95PM0)', '%', 10),
  ('O=C1COCc2ccc(Br)cc2N1Cc1ccc(C(F)(F)F)cc1', 'TbrCatL (Trypanosoma brucei rhodesiense, UniProt Q95PM0)', '%', -7),
  ('Clc1cccc(C(c2ccc(CN3CCNCC3)cc2)n2ccnc2)c1 (stereo not drawn)', 'TbrCatL (Trypanosoma brucei rhodesiense, UniProt Q95PM0)', '%', -1.1),
  ('COc1ccc(S(=O)(=O)Nc2ccc(CN3CCN(C(=O)c4cccc(C#N)c4)CC3)cc2)cc1', 'TbrCatL (Trypanosoma brucei rhodesiense, UniProt Q95PM0)', '%', 1.2),
  ('Cc1cc(C)n(-c2ccc(NC(=O)C3CCN(Cc4cnc(C)s4)CC3)cc2)n1', 'TbrCatL (Trypanosoma brucei rhodesiense, UniProt Q95PM0)', '%', -1.8);

Qu. Query the reported TbrCatL 10’ Inhibition for TbrCatL (Trypanosoma brucei rhodesiense, UniProt Q95PM0); item: COc1ccc(-c2cncc3ccc(C(=O)NCCCn4ccnc4)nc23)cc1
Ans. -13

Qu. Query the reported TbrCatL 10’ Inhibition for TbrCatL (Trypanosoma brucei rhodesiense, UniProt Q95PM0); item: COc1ccc(OC)c(NCc2ccc3nc(N)nc(N)c3c2Cl)c1
Ans. 22

Qu. Query the reported TbrCatL 10’ Inhibition for TbrCatL (Trypanosoma brucei rhodesiense, UniProt Q95PM0); item: O=C(NCCc1ccccc1)c1cc(-c2cccnc2)cnc1NCC1CC1
Ans. -13

Qu. Query the reported TbrCatL 10’ Inhibition for TbrCatL (Trypanosoma brucei rhodesiense, UniProt Q95PM0); item: Cc1ccc(NC(=O)c2cc(S(=O)(=O)NC(C)(C)C)ccc2C)nc1
Ans. 1.3
